Assignment: determine reported viability at 24 h, 50 µg/mL for the given molecules.
# Test Protocol: cytotoxicity / cell viability MTT assay
# Format: cell-based
# Experimental Context: mouse, RAW 264.7 cells, RAW 264.7, 24 h

**Q:** Given COc1ccc2c(c1)c(CC(=O)O)c(C)n2C(=O)c1ccc(Cl)cc1 [Indomethacin, reference compound] , state its recorded viability at 24 h, 50 µg/mL.
**A:** 85%

**Q:** Given COC(=O)C[C@@]12OC(=O)C[C@@H](C)[C@@H]1Oc1cccc(O)c1C2=O (relative stereo) [Compound 1, Daldiniaeschsone A] , state its recorded viability at 24 h, 50 µg/mL.
**A:** > 75%

###

# System: NO production in RAW 264.7 cells
# Test Protocol: nitric oxide (NO) production inhibitory activity in LPS-treated RAW 264.7 cells (Griess reaction)
# Format: cell-based
# Experimental Context: Mus musculus, RAW264.7; LPS 1 µg/mL; 24 h; read-out: Anti-Inflammatory (NO Production Inhibitory Activity) IC50
Quantity Measured: IC50
Quick note: unit goes after the number.

**Q:** Given COc1ccc2c(c1)c(CC(=O)O)c(C)n2C(=O)c1ccc(Cl)cc1 [Indomethacin, reference compound] , state its recorded IC50.
**A:** 19.6 µM

###

# System Name: α-glucosidase (Saccharomyces cerevisiae, UniProt P53341)
# Construct: purchased Sigma, St. Louis, MO, USA G5003
# Sequence (P53341 whole entry): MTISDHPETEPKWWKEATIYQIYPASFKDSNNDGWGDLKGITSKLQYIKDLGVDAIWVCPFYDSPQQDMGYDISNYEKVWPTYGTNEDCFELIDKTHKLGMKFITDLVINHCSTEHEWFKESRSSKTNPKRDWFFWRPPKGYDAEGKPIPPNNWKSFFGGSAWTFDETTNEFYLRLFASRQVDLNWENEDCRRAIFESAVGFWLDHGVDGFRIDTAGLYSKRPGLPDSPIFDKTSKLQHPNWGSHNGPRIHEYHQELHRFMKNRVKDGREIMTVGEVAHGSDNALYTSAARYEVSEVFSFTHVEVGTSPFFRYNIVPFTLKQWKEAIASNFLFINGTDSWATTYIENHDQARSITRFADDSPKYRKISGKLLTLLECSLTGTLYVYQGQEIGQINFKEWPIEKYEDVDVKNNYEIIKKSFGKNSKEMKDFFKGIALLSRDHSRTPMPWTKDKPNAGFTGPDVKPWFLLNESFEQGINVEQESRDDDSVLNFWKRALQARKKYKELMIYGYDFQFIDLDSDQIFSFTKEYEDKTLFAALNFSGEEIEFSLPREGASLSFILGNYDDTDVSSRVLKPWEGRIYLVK
# Test Protocol: biochemical
# Experimental Context: read-out: α-Glucosidase Inhibitory Activity IC50
Assignment: determine reported pIC50 for the given compounds.
Quick note: pIC50 means taking -log10 of the concentration in moles per liter.

**Q:** Request body: readout pIC50, system α-glucosidase (Saccharomyces cerevisiae, UniProt P53341), query O=C1CC[C@H](O)c2cccc(O)c21 [Compound 3, (+)-regiolone] . Return the value.
**A:** 3.07

**Q:** Request body: readout pIC50, system α-glucosidase (Saccharomyces cerevisiae, UniProt P53341), query C[C@H]1Cc2cccc(O)c2C(=O)O1 [Compound 5, (+)-mellein] . Return the value.
**A:** 3.12

**Q:** Request body: readout pIC50, system α-glucosidase (Saccharomyces cerevisiae, UniProt P53341), query O=C1C[C@@H](O)[C@@H](O)c2cccc(O)c21 [Compound 4] . Return the value.
**A:** 3.26

###

Assignment: determine reported pIC50 for the given molecules.
# System Name: α-glucosidase (Saccharomyces cerevisiae)
# Construct: purchased Sigma, St. Louis, MO, USA G5003
# Test Protocol: biochemical
# Protocol: A colorimetric α-glucosidase assay was carried out by the previously described procedure. Briefly, the sample solution was dissolved in DMSO after the solutions were diluted with a phosphate buffer (100 mM KH2PO4, pH 6.9) become DMSO (10%, v/v) concentration. […] The absorption was immediately measured at 405 nm by determining the quantity of p-nitrophenol released from the substrate.
Quick note: pIC50 means taking -log10 of the concentration in moles per liter.

**Q:** Given COC(=O)C[C@@]12OC(=O)C[C@@H](C)[C@@H]1Oc1cccc(O)c1C2=O (relative stereo) [Compound 1, Daldiniaeschsone A] , state its recorded pIC50.
**A:** 3.80

**Q:** Given COC(=O)C[C@@]12OC(=O)C[C@@H](C)[C@@H]1Oc1ccc(-c3ccc4c(c3O)C(=O)[C@]3(CC(=O)OC)OC(=O)C[C@@H](C)[C@@H]3O4)c(O)c1C2=O [Compound 2, Daldiniaeschsone B] , state its recorded pIC50.
**A:** 3.64
